Tested Target: RELA (p65) subunit of heterodimer;p52 subunit (Homo sapiens;Homo sapiens, UniProt Q04206;Q00653 1-307;4-332)
Test Details: protein binding microarray; high values mean tight binding
Condition Context: dsDNA, one strand shown
Reported binding signal values for the following sequences.
Hi! Could you send only the number? It should be in z-score, unit omitted.

Consider the following illustrative entries.
>  <Construct Sequence>
CAAAGTACCCC

>  <binding signal [z-score]>
0.795

$$$$
>  <Construct Sequence>
GAGTAAGCCCC

>  <binding signal [z-score]>
0.155

$$$$
>  <Construct Sequence>
GGATAATCCCC

>  <binding signal [z-score]>
1.79

$$$$
>  <Construct Sequence>
GGATTCATCCT

>  <binding signal [z-score]>
-0.991

$$$$

Need binding signal, item "CAATGTTCCCT"
-0.0733

Need binding signal, item "GGGTGCTCCCT"
0.115

Need binding signal, item "AAATTCATCCT"
-0.9

Need binding signal, item "CGAGTGACCCT"
-0.906

Need binding signal, item "CAATTCCCCCC"
1.94

Need binding signal, item "CGAGTCTTCCC"
-0.304

Need binding signal, item "CAATTCGTCCC"
0.123

Need binding signal, item "AAGAATCCCCC"
2.16

Need binding signal, item "GGATATGCCCT"
-0.49

Need binding signal, item "CGGGTTACCCT"
-0.124

Need binding signal, item "GGGAAGCTCCC"
1.16

----------
Tested Target: RELB subunit;p52 subunit (Homo sapiens;Homo sapiens, UniProt Q01201;Q00653 120-401;4-332)
Sequence 1: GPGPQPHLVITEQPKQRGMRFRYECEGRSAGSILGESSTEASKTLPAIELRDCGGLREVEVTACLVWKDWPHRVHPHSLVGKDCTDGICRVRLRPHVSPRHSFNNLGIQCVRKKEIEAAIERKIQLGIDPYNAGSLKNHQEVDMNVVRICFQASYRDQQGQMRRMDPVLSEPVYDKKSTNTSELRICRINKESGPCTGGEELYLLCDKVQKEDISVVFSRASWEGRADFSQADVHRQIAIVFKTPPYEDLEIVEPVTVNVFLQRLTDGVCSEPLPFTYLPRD
Sequence 2: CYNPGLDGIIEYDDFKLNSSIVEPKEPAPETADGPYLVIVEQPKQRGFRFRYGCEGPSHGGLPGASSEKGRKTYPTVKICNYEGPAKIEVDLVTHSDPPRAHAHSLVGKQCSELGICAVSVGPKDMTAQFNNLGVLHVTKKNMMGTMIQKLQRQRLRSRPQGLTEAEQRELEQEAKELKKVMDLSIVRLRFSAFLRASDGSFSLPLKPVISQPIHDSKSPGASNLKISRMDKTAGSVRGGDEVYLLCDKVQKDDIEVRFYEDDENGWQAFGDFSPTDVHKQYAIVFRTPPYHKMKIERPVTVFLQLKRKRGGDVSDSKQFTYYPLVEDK
Test Details: protein binding microarray; high values mean tight binding
Condition Context: dsDNA, one strand shown
Readout Label: binding signal

Consider the following illustrative entries.
>  <Construct Sequence>
CGAGTCCCCCT

>  <Reported Measurement>
2.08 z-score

$$$$
>  <Construct Sequence>
AGATATTCCCC

>  <Reported Measurement>
1.96 z-score

$$$$
>  <Construct Sequence>
GAGGACGTCCC

>  <Reported Measurement>
0.0168 z-score

$$$$
>  <Construct Sequence>
CAGATCCCCCT

>  <Reported Measurement>
2.37 z-score

$$$$
>  <Construct Sequence>
CGAAAGATCCC

>  <Reported Measurement>
-0.282 z-score

$$$$
>  <Construct Sequence>
AAAGAGACCCT

>  <Reported Measurement>
-0.766 z-score

$$$$
>  <Construct Sequence>
AGGAAAGTCCC

>  <Reported Measurement>
1.93 z-score

$$$$
>  <Construct Sequence>
CGAGGCATCCC

>  <Reported Measurement>
-0.906 z-score

$$$$
>  <Construct Sequence>
CGGAATTTCCT

>  <Reported Measurement>
-0.0415 z-score

$$$$
>  <Construct Sequence>
GAATACATCCT

>  <Reported Measurement>
-0.824 z-score

$$$$

Need binding signal, item "GAGGATTCCCC"
2.09 z-score

Need binding signal, item "GAGGGCTCCCC"
-0.218 z-score

Need binding signal, item "CGGTTGCTCCT"
-0.904 z-score

Need binding signal, item "CGAAGATCCCC"
1.11 z-score

Need binding signal, item "GAGGGTTCCCT"
0.0453 z-score

Need binding signal, item "GGAGTCACCCT"
-0.661 z-score

Need binding signal, item "CAGGGATCCCC"
1.1 z-score

Need binding signal, item "AAGAGAGCCCC"
-0.125 z-score

Need binding signal, item "CAATACATCCC"
-0.575 z-score
